# System Name: human recombinant Cyp A (Homo sapiens, UniProt P62937)
# Sequence (P62937 whole entry): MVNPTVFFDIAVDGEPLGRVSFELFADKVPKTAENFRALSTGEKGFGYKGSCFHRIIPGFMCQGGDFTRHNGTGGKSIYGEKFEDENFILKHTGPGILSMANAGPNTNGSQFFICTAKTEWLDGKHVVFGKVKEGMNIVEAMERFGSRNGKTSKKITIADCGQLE
# Assay Overview: biochemical
pKi: −log10 of the molar value. Counter-ions that a name gives are not always drawn. Square brackets hold non-standard residues; d marks the D form. Peptide text beside a SMILES is read from it. * marks the point of attachment. NMe(2-epi-Bmt) = C/C=C/C[C@@H](C)[C@@H](O)[C@@H](NC)C(=O)O; Ethyl(2-guanidino) = N=C(N)NCC*; NMeL = CN[C@@H](CC(C)C)C(=O)O; dNMeL = CN[C@H](CC(C)C)C(=O)O; dNMeV = CN[C@@H](C(=O)O)C(C)C; dNMeC = CN[C@H](CS)C(=O)O; dAbu = CC[C@@H](N)C(=O)O; X6 = COC(=O)CC*
Listing of entries alongside the reported pKi.

Compound	pKi
C/C=C/C[C@@H](C)[C@@H](O)[C@@H]1C(=O)N[C@H](CC)C(=O)N(C)[C@H](CSCCC(=O)OC)C(=O)N(C)[C@@H](CC(C)C)C(=O)N[C@H](C(C)C)C(=O)N(C)[C@H](CC(C)C)C(=O)N[C@H](C)C(=O)N[C@@H](C)C(=O)N(C)[C@H](CC(C)C)C(=O)N(C)[C@H](CC(C)C)C(=O)N(C)[C@H](C(C)C)C(=O)N1C [Example 12] (cyclo(A[dNMeL][dNMeL][dNMeV][NMe(2-epi-Bmt)][dAbu][dNMeC](X6)[NMeL][dV][dNMeL][dA]))	8.57
C/C=C/C[C@@H](C)[C@@H](O)[C@@H]1C(=O)N[C@H](CC)C(=O)N(C)[C@H](CSCCNC(=N)N)C(=O)N(C)[C@@H](CC(C)C)C(=O)N[C@H](C(C)C)C(=O)N(C)[C@H](CC(C)C)C(=O)N[C@H](C)C(=O)N[C@@H](C)C(=O)N(C)[C@H](CC(C)C)C(=O)N(C)[C@H](CC(C)C)C(=O)N(C)[C@H](C(C)C)C(=O)N1C [Example 19, hydrochloride] (cyclo(A[dNMeL][dNMeL][dNMeV][NMe(2-epi-Bmt)][dAbu][dNMeC](Ethyl(2-guanidino))[NMeL][dV][dNMeL][dA]))	8.17
